test system: UO-31 renal; experiment: NCI-60 one-dose screen, 48 h (100 = growth as untreated, 0 = no growth, -100 = all killed); settings: 10 µM unless noted
Compounds without any hit were thinned out: in the full panel of roughly 83,000, 20% have a hit.
Class membership depends on growth alone; the intervals are L (below 30%), M (30% to below 70%), H (70% or more)

smiles_code=CN(C)S(=O)(=O)c1ccc(S(=O)(=O)Nc2cccc(Cl)c2N2CCCCC2)cc1 assayed_system="UO-31 renal" label_value=H
smiles_code=COc1ccc(O)c(N=Nc2nccs2)c1 assayed_system="UO-31 renal" label_value=M
smiles_code=COc1cccc(-c2nc3sccn3c2-c2ccnc(NCCCNS(=O)(=O)c3cccc(F)c3)c2)c1 assayed_system="UO-31 renal" label_value=L
smiles_code=Cn1cc(-c2nonc2-c2cn(C)c3ccc(F)cc23)c2ccccc21 assayed_system="UO-31 renal" label_value=L
smiles_code=O=C(Cc1ccc(/C=C/C(=O)c2ncc[nH]2)cc1)Nc1ccccc1 assayed_system="UO-31 renal" label_value=M
smiles_code=COc1ccc(C(=S)N2CCN(c3cccc(Cl)c3)CC2)cc1 assayed_system="UO-31 renal" label_value=H
smiles_code=C#CC(F)(F)[C@]1(O)CC[C@H]2[C@@H]3CCC4=CC(=O)CCC4=C3[C@@H](c3ccc(C4CC4)cc3)C[C@@]21C assayed_system="UO-31 renal" label_value=L

###

system: NCI-H460 lung; assay: NCI-60 one-dose screen, 48 h; details: 10 µM unless noted
The panel holds about 83,000 compounds, 20% with a hit somewhere; the sample as a whole holds those more often. The source made the active and inactive calls. The calls were made as follows: active = growth percent below 10; inactive = the rest.
Outcomes: active, inactive

compound=CSc1nc2c(c(=O)[nH]1)C1(C(=O)Nc3ccccc31)c1c(nc(SC)[nH]c1=O)N2 label_value=inactive
compound=CCCN1CCN(c2ccc3nc(-c4ccc5nc(-c6ccc(OCC)cc6)[nH]c5c4)[nH]c3c2)CC1 label_value=active
compound="COc1cc2c(cc1OC)C(Sc1ccc(SC)cc1)c1c(nc(N)c(C#N)c1N)O2 (stereo not given)" label_value=active
compound=COc1cc2nnc3c4cccnc4[nH]c3c2cc1OC label_value=inactive
compound=O=C1Nc2c(ccc(Cl)c2Cl)/C1=C\c1ccc(C(F)(F)F)cc1 label_value=inactive
compound=COc1cc(-c2nn(C)nc2-c2cc3ccccc3s2)cc(OC)c1OC label_value=inactive
compound=Fc1ccc2[nH]cc(SSc3c[nH]c4ccc(F)cc34)c2c1 label_value=inactive
compound=CN(C)CCN1C(=O)c2cccc3c(N)ccc(c23)C1=O label_value=active
compound=Nc1ccc(-c2cc3c(NCc4ccccc4)ncnc3s2)cc1 label_value=inactive
compound=O=c1c(F)cn(Cc2ccccc2CCl)c(=O)n1Cc1ccccc1CCl label_value=active

###

tested on: 786-0 renal; assay: NCI-60 one-dose screen, 48 h; settings: 10 µM unless noted
About 83,000 compounds went through this panel and 20% of them were active in at least one assay; those are over-represented in the sample as a whole. Active and inactive are the calls of the source. Rule for the calls: active = growth percent below 10; inactive = the rest.
Outcomes: T (active), F (inactive)

molecule=COc1ccc2cc(-c3nn(-c4ccc(C(=O)O)cc4)cc3CO)ccc2c1 label_value=F
molecule=COc1cccc(-c2nn(C(C)(C)C)cc2-c2ccnc(NCCCNS(=O)(=O)c3ccc(C)cc3)c2)c1 label_value=F
molecule=O=C(CCN1C(=O)/C(=C/c2ccc(Cl)cc2)SC1=S)NCCCN1CCOCC1 label_value=F
molecule=O=C(/C=C/c1cc(CN2CCOCC2)c(O)c2ncccc12)c1cc(CN2CCOCC2)c(O)c2ncccc12 label_value=F
molecule=CCCCn1cnc2c(Sc3c([N+](=O)[O-])ncn3C)nc(N)nc21 label_value=F
molecule=CCC#CC[C@H](O)C/C=C1/C(=O)C=C[C@@H]1C/C=C\CCCC(=O)OC label_value=T
molecule=Cn1c(=O)[nH]c(=O)c2nc(CCC(=O)NCCC(=O)O)c(=O)[nH]c21 label_value=F
molecule=CN(C)S(=O)(=O)c1cccc(-c2nc3sc4c(c3c(=O)[nH]2)CCCC4)c1 label_value=T
molecule=O=S(=O)(Nc1ccc(Br)c(Cl)c1)c1ccc(-c2cnc(C3CC3)o2)cc1 label_value=F
molecule=COc1ccc(-n2nc(C)c3c(Nc4ccc(NC(=O)Nc5cc(C(F)(F)F)ccc5F)cc4)ncnc32)cc1 label_value=F
molecule=Cc1cc(C)nc(SC2=C(Nc3cccc(Cl)c3C)C(=O)N(Cc3ccccc3)C2=O)n1 label_value=F
molecule=COc1cccc(-c2nn(C(C)(C)C)cc2-c2ccnc(NCCCNS(=O)(=O)c3cccc4ccccc34)c2)c1 label_value=F
molecule=CC[C@@H]1O[C@H](O[C@@H](c2cnc[nH]2)[C@H](NC(=O)c2nc([C@H](CC(N)=O)NC[C@@H](N)C(N)=O)nc(N)c2C)C(=O)N[C@H](C)[C@H](O)[C@H](C)C(=O)N[C@@H](C(=O)NCCc2nc(-c3nc(C(=O)NCCCCN=C(N)N)cs3)cs2)[C@@H](C)O)[C@H](O[C@@H]2O[C@H](CO)[C@H](O)[C@H](OC(N)=O)[C@@H]2O)[C@H](C)[C@@H]1C label_value=F
molecule=C#Cc1cccc(NC(=O)c2ccccc2NC(=O)C=C)c1 label_value=F
molecule="CN(CCCCCl)P(=O)(OCc1ccc([N+](=O)[O-])o1)C(F)(F)c1ccc(CC(=O)NC[C@@H](O)/C=C\\[C@@H](O)[C@H](CO)Cc2ccccc2)cc1 (stereo not given in full)" label_value=F
molecule=CC1=C[C@H]2c3c(c(O)c(O)c4oc5cc(O)ccc5c(=O)c34)[C@H](c3cc(O)c(O)c4oc5cc(O)ccc5c(=O)c34)[C@H]2C(C)(C)C1 label_value=F
molecule=COc1cc(CNc2oc(-c3ccccc3)c(-c3ccccc3)c2C#N)cc(CN2CCN(C)CC2)c1O label_value=F
molecule=COc1cc2c(cc1O)CC[C@@H]1[C@@H]2CC[C@]2(C)[C@@H](OCCN(C)C)CC[C@@H]12 label_value=F
molecule="CSc1ccc(SC2c3ccc(C)cc3Oc3nc(N)c(C#N)c(N)c32)cc1 (stereo not given)" label_value=T
molecule=C=CC(=O)Nc1cccc(-c2nc(SC)nc(Nc3ccccc3OC)c2C#N)c1 label_value=F
molecule=O=c1cc(CSc2nnc(-c3ccc(F)cc3)o2)c2ccc3ccccc3c2o1 label_value=F
molecule=CCN=C1C=CC(=C(c2ccc(N)cc2)c2ccc(N(CC)CC)c(C)c2)C=C1 label_value=T
molecule=COc1ccc(NC2=C(Sc3nc(C)cc(C)n3)C(=O)N(Cc3ccccc3)C2=O)cc1Cl label_value=F
molecule=NC(N)=N/N=C(/c1ccccc1)c1ccc(F)cc1 label_value=F
molecule=C#CC(F)(F)[C@]1(O)CC[C@H]2[C@@H]3CCC4=CC(=O)CCC4=C3[C@@H](c3ccc(C4CC4)cc3)C[C@@]21C label_value=T
molecule=Clc1ccc2c(NCCCCNc3nc(N4CCOCC4)nc4ccccc34)ccnc2c1 label_value=T
molecule=O=Nc1c(O)c(Cl)cc2ccccc12 label_value=F
molecule=CN(C)[C@@H]1C(=O)C(C(=O)NCc2nc3[nH]cnc(=S)c3[nH]2)=C(O)[C@@]2(O)C(=O)C3=C(O)c4c(O)cccc4[C@@](C)(O)[C@H]3C[C@@H]12 label_value=F
molecule=O=C(Cc1ccc(/C=C/C(=O)c2ncc[nH]2)cc1)Nc1ccccc1 label_value=F
molecule=COc1ccc(CN2c3ccccc3Sc3ccccc32)cc1O label_value=F
molecule="Cc1cc(N2CCN(C)CC2)nc(NC2CCCC(Nc3ccnc4cc(Cl)ccc34)C2)n1 (stereo not given)" label_value=T
molecule=Cc1nn(-c2ccc(F)cc2)c2ncnc(Oc3ccc(NC(=O)Nc4ccc(Cl)c(C(F)(F)F)c4)cc3)c12 label_value=F
molecule=CCCOc1cc2ccccc2cc1C(=O)Nc1nc(N)c2c(ccc3nccc32)[nH]1 label_value=T
molecule=CC(=O)Nc1ccc(-n2c(O)c(/C=N/NC(=O)Cc3ccccc3Nc3c(Cl)cccc3Cl)sc2=S)cc1 label_value=F
molecule="CC1CCNC(C)C1 (stereo not given)" label_value=F

###

system: M14 melanoma; test: NCI-60 one-dose screen, 48 h; conditions: 10 µM unless noted
The panel holds about 83,000 compounds, 20% with a hit somewhere; the sample as a whole holds those more often. The source made the active and inactive calls. The calls were made as follows: active = growth percent below 10; inactive = the rest.
Outcomes: class 1 = active, class 0 = inactive

compound="CC1CCNC(C)C1 (configuration not stated)" label_value="class 0"
compound=CC(=O)OCCC/C(=C/c1cc2ccccc2c2ccccc12)[N+](=O)[O-] label_value="class 1"
compound=Cc1ccccc1COc1ccc(-c2ccnn2-c2ccc(Cl)cc2)cc1 label_value="class 0"
compound=COc1ccc(CN2c3ccccc3Oc3ccccc32)cc1O label_value="class 0"
compound=C=CC(=O)Nc1cccc(-c2nc(SC)nc(NCc3ccccc3)c2C#N)c1 label_value="class 0"
compound=COc1cc(/C=C/C(=O)c2c(C)oc3nc[nH]c(=O)c23)cc(OC)c1OC label_value="class 0"
compound=CC1=NN(c2nc(-c3ccc(Cl)cc3)c(C#N)c(N3CCOCC3)n2)C(=O)C1 label_value="class 0"
compound=O=C(NCCN1CCOCC1)Nc1ccc(-c2cc3c(Nc4ccc(Oc5cccc(C(F)(F)F)c5)c(Cl)c4)ncnc3s2)cc1 label_value="class 1"
compound=O=c1ccccc(-c2ccc(Br)cc2)c1O label_value="class 1"
compound=CN(C)c1ccc(N=Nc2ccccn2)c(O)c1 label_value="class 1"
compound=CC1=C/C(=C(\c2ccc(N(C)C)cc2)c2ccc([N+](C)(C)C)cc2)C=CC1=[N+](C)C label_value="class 0"
compound=O=C(N=Nc1c(O)[nH]c2ccccc12)c1cc(-c2ccccc2)on1 label_value="class 0"
compound=COC[C@H](C)n1c(C2CCOCC2)nc2cnc3cc(-c4c(C)noc4C)c(OC)cc3c21 label_value="class 0"
compound=CC/C=C\C[C@H](O)C/C=C1/C(=O)C=C[C@@]1(C)C/C=C\CCCC(=O)OC label_value="class 0"
compound=COc1cc2nc(N3CCCC3)nc(NCC3CCCCC3)c2cc1OC label_value="class 1"
compound=O=C(COc1cccc(/C=C2\CSc3ccccc3C2=O)c1)Nc1nccs1 label_value="class 0"
compound=Cc1ccc(O)c(N2C(=NCc3ccco3)NS(=O)(=O)c3cnccc32)c1 label_value="class 0"
compound=COc1cc(CNc2oc(-c3ccccc3)c(-c3ccccc3)c2C#N)cc(CN2CCN(C)CC2)c1O label_value="class 1"
compound=COc1ccc2c(c1)c(-c1nonc1-c1cn(C)c3ccccc13)cn2C label_value="class 0"
compound=Oc1ccc(N=Cc2ccccc2O)cc1 label_value="class 0"
compound=C#CCOc1ccc2ncnc(N3CCC(NC(=O)CCl)CC3)c2c1 label_value="class 0"
compound=CCCCn1c(-c2ccc(C(=O)O/N=C(\N)c3ccc4c(c3)OCO4)cc2)nc(-c2ccccc2)c1-c1ccccc1 label_value="class 0"
